Origin of values: patent US20030229113A1

# System: epidermal hyperplasia induced by TPA
# protocol-text: TPA-induced epidermal hyperplasia on dorsal skin of mice
# Format: in vivo, male BALB/c mice
# study-conditions: ED50; topical in acetone at 1 minute, 24 and 48 hours after TPA; epidermal thickness 72 hours after TPA
# Protocol: After backs of male BALB/c mice were shaved, 20 micro 1 of TPA-acetone solution (50 μM) was applied to the dorsal skin surface in an area of ca. 1 cm^2. A volume of 20 micro 1 of test compound-acetone solution was applied to the same area a minute, 24 hours and 48 hours after TPA application (the treated group). In the non-treated group, acetone was applied instead of the test compound. […] The epidermal thickness was measured using an ocular microscope. […]
The following molecules are listed with their measured Amount of test compound required for 50% suppression of epidermal hyperplasia values.

Worked cases, answers included:
CNC(=O)[C@@H](NC(=O)[C@H](CC(C)C)C(CN1CCc2ccccc2C1)C(=O)NO)c1ccccc1 (some centres unmarked) [the compound c, reference compound]	190 10^−6 g/cm^2
COc1ccc(S(=O)(=O)N2Cc3nccnc3CC2C(=O)NO)cc1 (single isomer, unassigned; (+))	350 10^−6 g/cm^2
CCOc1ccc(S(=O)(=O)N2Cc3nccnc3CC2C(=O)NO)cc1 (single isomer, unassigned; (+))	370 10^−6 g/cm^2
O=C(NO)C1Cc2nccnc2CN1S(=O)(=O)c1ccc(OC(F)(F)F)cc1 (single isomer, unassigned; (+))	48 10^−6 g/cm^2
O=C(NO)C1Cc2nccnc2CN1S(=O)(=O)c1ccc(Oc2ccccc2)cc1 (single isomer, unassigned; (+))	27 10^−6 g/cm^2

Record lookup: for epidermal hyperplasia induced by TPA, what Amount of test compound required for 50% suppression of epidermal hyperplasia belongs to O=C(NO)C1Cc2nccnc2CN1S(=O)(=O)c1ccccc1 (single isomer, unassigned; (+)) ?
130 10^−6 g/cm^2

Record lookup: for epidermal hyperplasia induced by TPA, what Amount of test compound required for 50% suppression of epidermal hyperplasia belongs to COCCOc1ccc(S(=O)(=O)N2Cc3nccnc3CC2C(=O)NO)cc1 (single isomer, unassigned; (+)) ?
200 10^−6 g/cm^2

Record lookup: for epidermal hyperplasia induced by TPA, what Amount of test compound required for 50% suppression of epidermal hyperplasia belongs to CCOCCOc1ccc(S(=O)(=O)N2Cc3nccnc3CC2C(=O)NO)cc1 (single isomer, unassigned; (+)) ?
58 10^−6 g/cm^2

Record lookup: for epidermal hyperplasia induced by TPA, what Amount of test compound required for 50% suppression of epidermal hyperplasia belongs to CNC(=O)C(Cc1cccc2ccccc12)NC(=O)C(CC(=O)NO)CC(C)C (centres unmarked) [the compound d, reference compound] ?
40 10^−6 g/cm^2

Record lookup: for epidermal hyperplasia induced by TPA, what Amount of test compound required for 50% suppression of epidermal hyperplasia belongs to O=C(NO)C1Cc2nccnc2CN1S(=O)(=O)c1ccc(-c2ccccc2)cc1 (single isomer, unassigned; (+)) ?
20 10^−6 g/cm^2

Record lookup: for epidermal hyperplasia induced by TPA, what Amount of test compound required for 50% suppression of epidermal hyperplasia belongs to CSCCCOc1ccc(S(=O)(=O)N2Cc3nccnc3CC2C(=O)NO)cc1 (single isomer, unassigned; (+)) ?
230 10^−6 g/cm^2
